Sourced from PubChem BioAssay (NCI)

GI50 values for the compounds below.
- Tested on: EKVX NSCLC
- MEASUREMENT_PROTOCOL: NCI tumour cell line growth inhibition, 48 h

>  <CHEMICAL_SMILES>
O=C(c1ccccc1)c1cc2ccccc2o1

>  <GI50>
32.6 µM

$$$$
>  <CHEMICAL_SMILES>
CCOC(=O)Nc1ccc(-c2nc(-c3cccc(OCCN4CCOCC4)c3)c(-c3ccnc(Br)c3)[nH]2)cc1

>  <GI50>
3.2 µM

$$$$
>  <CHEMICAL_SMILES>
Cn1cc(-c2csc(-c3c[nH]c4ccc(F)cc34)n2)c2cnccc21

>  <GI50>
1.62 µM

$$$$
>  <CHEMICAL_SMILES>
NCCNc1c2c(c(NCCN)c3[nH]ccc13)C(=O)c1ccccc1C2=O

>  <GI50>
1.25 µM

$$$$
>  <CHEMICAL_SMILES>
COc1cc(-n2cc(-c3ccc(F)cc3)[nH]c2=O)cc(OC)c1OC

>  <GI50>
> 100 µM

$$$$
